For reference, IC50 measured on adenosine A2 receptor (Rattus norvegicus):
parameter: IC50 (nM)

compound="OC[C@H]1O[C@@H](n2cnc3c(NCC4(c5ccccc5)CCC4)ncnc32)[C@H](O)[C@@H]1O [Example 7, N6-((1-Phenylcyclobutyl)methyl)adenosine]" assayed_system="adenosine A2 receptor (Rattus norvegicus)" test_value=150
compound="OC[C@H]1O[C@@H](n2cnc3c(NCC4(c5cccc(Cl)c5)CCC4)ncnc32)[C@H](O)[C@@H]1O [Example 8]" assayed_system="adenosine A2 receptor (Rattus norvegicus)" test_value=320
compound="OC[C@H]1O[C@@H](n2cnc3c(NCC4(c5cccs5)CCC4)ncnc32)[C@H](O)[C@@H]1O [Example 9]" assayed_system="adenosine A2 receptor (Rattus norvegicus)" test_value=87
compound="O[C@@H]1[C@H](O)[C@@H](CCl)O[C@H]1n1cnc2c(NCC3(c4ccccc4)CC3)ncnc21 [Example 5]" assayed_system="adenosine A2 receptor (Rattus norvegicus)" test_value=420
compound="OC[C@H]1O[C@@H](n2cnc3c(NCC4(c5ccccc5)CC4)ncnc32)[C@H](O)[C@@H]1O [Example 1]" assayed_system="adenosine A2 receptor (Rattus norvegicus)" test_value=80
compound="OC[C@H]1O[C@@H](n2cnc3c(NCC4(c5ccc(Cl)cc5)CC4)ncnc32)[C@H](O)[C@@H]1O [Example 12]" assayed_system="adenosine A2 receptor (Rattus norvegicus)" test_value=1200
compound="OC[C@H]1O[C@@H](n2cnc3c(NCC4(c5cccs5)CC4)ncnc32)[C@H](O)[C@@H]1O [Example 3]" assayed_system="adenosine A2 receptor (Rattus norvegicus)" test_value=8.6
